- methodDescription: Solubility of RPL554 salts in saline solutions, water and aqueous buffer solutions at 25° C. (HPLC)
- Format: physicochemical
- testContext: deionised water, 24 hours
Counter-ions that a name gives are not always drawn.
Here the recorded Solubility as RPL554 (mg/ml) in Water is given for each entry.
Enter the number, and then the unit.

Example cases with answers are listed next.
COc1cc2c(cc1OC)-c1c/c(=N\c3c(C)cc(C)cc3C)n(CCNC(N)=O)c(=O)n1CC2 [Naphthalene-2-sulfonate] = 0.13 mg/mL
COc1cc2c(cc1OC)-c1c/c(=N\c3c(C)cc(C)cc3C)n(CCNC(N)=O)c(=O)n1CC2 [Methanesulfonate, RPL554 methanesulfonate] = 44.52 mg/mL
COc1cc2c(cc1OC)-c1c/c(=N\c3c(C)cc(C)cc3C)n(CCNC(N)=O)c(=O)n1CC2 [Ethanesulfonate, RPL554 ethanesulfonate] = 21.37 mg/mL
COc1cc2c(cc1OC)-c1c/c(=N\c3c(C)cc(C)cc3C)n(CCNC(N)=O)c(=O)n1CC2 [p-Toluenesulfonate, RPL554 p-toluenesulfonate] = 1.01 mg/mL
COc1cc2c(cc1OC)-c1c/c(=N\c3c(C)cc(C)cc3C)n(CCNC(N)=O)c(=O)n1CC2 [Sulfate, RPL554 sulfate] = 12.11 mg/mL

What measured Solubility as RPL554 (mg/ml) in Water goes with COc1cc2c(cc1OC)-c1c/c(=N\c3c(C)cc(C)cc3C)n(CCNC(N)=O)c(=O)n1CC2 [Phosphate, RPL554 phosphate] ?
41.84 mg/mL
